- System: SK-MEL-2
- experiment: NCI tumour cell line growth inhibition, 48 h
Activity calls are given as the source filed them. No stated cut-off is given here; in the data, active = GI50 up to about 1.1 µM and inactive = higher.
measured.quantity: GI50

structure.smiles.string	measured.quantity	data.value
COc1cccc(CN(C(=O)/C=C\Sc2ccccc2)C(C)(C)C)c1	GI50	54.8 µM (inactive)
O=C1c2cccc3cc([N+](=O)[O-])cc(c23)C(=O)N1NC1=NCCN1	GI50	> 100 µM (inactive)
CCCCOc1c(C(=O)O)cc(Br)cc1C(=O)O	GI50	> 100 µM (inactive)
CCOC(=O)N1C(=S)C(C(=O)OC)(C(=O)OC)N=C1C	GI50	> 100 µM (inactive)
Nn1c(CCCCCCCCc2nnc(COc3ccccc3)n2N)nnc1COc1ccccc1	GI50	> 100 µM (inactive)
COC(=O)c1ccc(CCC2=CC(=O)C=CC2=O)cc1	GI50	16.4 µM (inactive)

###

Item-by-item account of GI50
- System: TK-10
- experiment: NCI tumour cell line growth inhibition, 48 h
The source made the active and inactive calls. No stated cut-off is given here; in the data, active = GI50 up to about 1.1 µM and inactive = higher.

molecule	target.or.test.system	GI50
O=S(=O)(O)c1cccc2cccc(/N=N/c3c(O)ccc4ccccc34)c12	TK-10	> 100 µM (inactive)
Cc1cc(C(=C2C=CC(=[N+](C)C)C=C2)c2ccc([N+](C)(C)C)cc2)ccc1N(C)C	TK-10	1.57 µM (inactive)
CCc1cccc(C)c1NC(=O)NS(=O)(=O)c1ccc(C)cc1	TK-10	> 100 µM (inactive)
O=C1C=CC(CC(=O)c2ccc3ccccc3c2)O1 (centres undefined)	TK-10	32.8 µM (inactive)
CCC1(c2ccncc2)CCC(=O)NC1=O (centres undefined) [ROGLETIMIDE]	TK-10	> 100 µM (inactive)
COc1ccc(-c2nc3cc(C(F)(F)F)ccc3n2CC2CCCN3CCCCC23)cc1 (centres undefined)	TK-10	16.6 µM (inactive)
CC1=Nc2c(N)nc(N)nc2N(C)C1	TK-10	> 100 µM (inactive)
COc1cc(/C=C2\N=C(c3ccccc3)N(c3nc4cc(C)c(C)cc4s3)C2=O)ccc1O	TK-10	79.4 µM (inactive)
CCOC(=O)CC(N1CC1)N1CC1	TK-10	> 10 µM (inactive)
CN(C)CCOC1(CC2CCCCC2)CCC(C(C)(C)C)CC1 (centres undefined)	TK-10	12.8 µM (inactive)
Cc1cc(N(CCOS(C)(=O)=O)CCOS(C)(=O)=O)ccc1/C=N/c1ccc(-c2csc(-c3ccc(Br)cc3)n2)cc1	TK-10	7.57 µM (inactive)
Nn1c(CCCCCCCCc2nnc(COc3ccccc3)n2N)nnc1COc1ccccc1	TK-10	> 100 µM (inactive)
C[n+]1c(-c2ccc(/C=N\Nc3ccnc(N/N=C/c4ccc(-c5cn6ccsc6[n+]5C)cc4)n3)cc2)cn2ccsc21	TK-10	20.3 µM (inactive)
COC1CC(C)C(OC)C2=CC(=O)C=C(NC(=O)/C(C)=C/C=C\C(C)C(OC(N)=O)/C(C)=C\C(C)C1OC)C2=O (centres undefined)	TK-10	2.09 µM (inactive)

###

- Test system: RPMI-8226
- experiment: NCI tumour cell line growth inhibition, 48 h
Activity calls are given as the source filed them. Cut-off read from the data, not from the text of the source: active = GI50 up to about 1.1 µM and inactive = higher.
Attribute: GI50
measured.quantity: GI50

compound	data.value
[O-][n+]1onc(-c2ccccc2)c1CN1CCOCC1	76.6 µM (inactive)
CCOc1ccccc1N1C(=O)C(=O)C(c2nc3ccccc3o2)/C(=N\N)C1=O (centres undefined)	> 100 µM (inactive)
Cc1cccc(C(C)(C)C)c1NC(=O)C(=O)C(c1cnc2ccccc2n1)[N+](=O)[O-] (centres undefined)	60.3 µM (inactive)
O=C(CCN1CCOCC1)/C(=C/c1ccccc1)c1ccccc1	2 µM (inactive)
